Data provenance is ChEMBL document CHEMBL4043062.

- Test system: Escherichia coli
- method: Antibacterial activity against gram-negative Escherichia coli K-12 assessed as zone of inhibition by agar diffusion assay
- Format: functional
endpointLabel: inhibition zone (IZ) (mm)
Kindly answer with a numeric value in mm, unit omitted.

CO[C@H]1[C@H](OC(=O)c2cccc3nc4cccc(C/C=C(\C)CO)c4nc23)O[C@@H](C)[C@H](O)[C@H]1O | 9
CC(C)=CCc1cc(=O)cc2n(C/C=C(\C)CO)c3cccc(C(=O)O)c3nc1-2 | 0

Record C/C(=C\Cc1cccc2nc3cccc(C(=O)O[C@@H]4O[C@@H](C)[C@H](O)[C@@H](O)[C@H]4O)c3nc12)CO . Reported inhibition zone (IZ): 12

Record C[C@@H]1O[C@@H](OC(C)(C)/C=C/c2cccc3nc4cccc(C(=O)O)c4nc23)[C@H](O)[C@H](O)[C@H]1O . Reported inhibition zone (IZ): 0

Record CO[C@H]1[C@H](OC(=O)c2cccc3nc4ccccc4nc23)O[C@@H](C)[C@H](O)[C@H]1O . Reported inhibition zone (IZ): 7

Record CO[C@H]1[C@H](Oc2cccc3nc4c(C(N)=O)cccc4nc23)O[C@@H](C)[C@H](O)[C@H]1O . Reported inhibition zone (IZ): 7
